Below is a list of entries, each paired with its recorded solubility value.
experiment: physchem
Entry rule: numbers only, all in µg/mL.

CC[C@H](C)[C@H](NC(=O)[C@H]([C@@H](C)CC)N(CC)CC)C(=O)N1CCC[C@H]1C(N)=O [N,N-Diethyl-Ile-Ile-ProNH2] : 1000

Shifting focus to the molecule that follows.
CCNC(=O)[C@@H]1CCCN1C(=O)[C@H](Cc1ccccc1)NC(=O)[C@H]([C@@H](C)CC)N(CC)CC [N,N-Diethyl-Ile-Phe-ProNHEt] yielded solubility of 1000

###

experiment: Metabolic stability in rat hepatocytes; type: in vitro ADME; conditions: male, Wistar, freshly isolated rat hepatocytes (in suspension), 10^6 cells/ml, analysed during 24 h, read-out: T½ (converted)
half-life listing for selected compounds.
In your response, the unit should come after the numeric value.

CCNC(=O)[C@@H]1CCCN1C(=O)[C@H](Cc1ccccc1)NC(=O)[C@H]([C@@H](C)CC)N(CC)CC : 4.5 h

// next item, half-life requested
Kindly note the recorded half-life for `CC[C@H](C)[C@H](NC(=O)[C@H]([C@@H](C)CC)N(CC)CC)C(=O)N1CCC[C@H]1C(N)=O` , which is 3.4 h

###

experiment: Metabolic stability in rat hepatocytes; type: in vitro ADME; details: male, Wistar, freshly isolated rat hepatocytes, 10^6 cells/ml, analysed during 24 h, read-out: T½ (converted)
Measured quantity: half-life (h)
Express it in h; write the number only.

# compound `CC[C@H](C)[C@H](NC(=O)CN(CC)CC)C(=O)N1CCC[C@H]1C(N)=O` ; its half-life = 2.8
